molecular target: human AR (Homo sapiens, UniProt P10275); assay: AR whole cell competitive binding assay (COS-1 cells, 3H-DHT); conditions: 1 nM 3H-DHT, Cheng-Prusoff
Sequence (P10275 whole entry): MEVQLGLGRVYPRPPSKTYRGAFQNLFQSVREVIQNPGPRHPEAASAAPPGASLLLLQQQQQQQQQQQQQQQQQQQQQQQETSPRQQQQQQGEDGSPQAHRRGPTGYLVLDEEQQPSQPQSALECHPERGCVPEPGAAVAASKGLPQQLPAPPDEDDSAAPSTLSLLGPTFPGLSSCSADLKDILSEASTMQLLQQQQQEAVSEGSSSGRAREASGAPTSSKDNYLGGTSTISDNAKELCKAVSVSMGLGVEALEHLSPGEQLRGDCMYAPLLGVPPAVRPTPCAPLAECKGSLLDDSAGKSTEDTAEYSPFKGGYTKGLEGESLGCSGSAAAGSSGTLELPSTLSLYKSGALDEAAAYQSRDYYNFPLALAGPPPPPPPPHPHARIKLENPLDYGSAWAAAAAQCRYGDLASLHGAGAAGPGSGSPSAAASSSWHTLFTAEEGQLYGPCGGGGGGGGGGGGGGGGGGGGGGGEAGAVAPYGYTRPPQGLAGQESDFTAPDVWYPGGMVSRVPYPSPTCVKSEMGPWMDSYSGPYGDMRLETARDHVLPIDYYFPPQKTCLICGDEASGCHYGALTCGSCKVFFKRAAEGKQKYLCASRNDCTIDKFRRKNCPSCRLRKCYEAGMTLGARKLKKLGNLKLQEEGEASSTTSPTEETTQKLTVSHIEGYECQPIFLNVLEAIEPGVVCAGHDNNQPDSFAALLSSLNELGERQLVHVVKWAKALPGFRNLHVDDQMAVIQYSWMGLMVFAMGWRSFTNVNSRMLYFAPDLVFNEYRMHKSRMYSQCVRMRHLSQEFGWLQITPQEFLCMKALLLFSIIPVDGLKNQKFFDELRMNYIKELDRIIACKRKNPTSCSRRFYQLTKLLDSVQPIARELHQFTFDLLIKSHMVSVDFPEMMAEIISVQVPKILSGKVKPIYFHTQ
For each record, write down the corresponding pKi.
Scale explanation: pKi corresponds to minus log10 of a concentration expressed in moles per litre.

Input: Form field: reported pKi of Cn1c(=O)cc(C(F)(F)F)c2ccc(NCC(F)(F)F)cc21
Output: 6.80

Input: Next molecule: C=CCN(CC1CC1)c1ccc2[nH]c(=O)cc(C(F)(F)F)c2c1
Output: 8.21

Input: Next molecule: O=c1cc(C(F)(F)F)c2cc(NCC(Cl)(Cl)Cl)ccc2[nH]1
Output: 7.42

Input: Next molecule: O=c1cc(C(F)(F)F)c2cc(N3CCCCCC3)ccc2[nH]1
Output: 7.26

Input: Next molecule: CC1(C)OC(=O)Nc2ccc(C3=CCCCC3)cc21
Output: 8.13

Input: Next molecule: O=c1cc(C(F)(F)F)c2cc(-c3ccc(Cl)cc3Cl)ccc2[nH]1
Output: 7.13

Input: Next molecule: CCCC1CCC(CCC)N1c1ccc2[nH]c(=O)cc(C(F)(F)F)c2c1 (racemic)
Output: 6.91

Input: Next molecule: O=c1cc(C(F)(F)F)c2cc(-c3ccccc3)ccc2[nH]1
Output: 7.80

Input: Next molecule: O=c1cc(C(F)(F)F)c2cc(N3CCCCC3)ccc2[nH]1
Output: 7.92

Reference source for all entries: patent US7696246B2
